# MEAN CORPUSCULAR HEMOGLOBIN CONCENTRATION per entry
- Species on record: Rattus norvegicus
- measurementProtocol: DrugMatrix - Regimen: Daily Repeat
- Assay type: toxicity, organism-based, Sprague-Dawley
- Set-up: regimen Daily Repeat, gender Male, age 6-8 weeks
- cond: in vivo, po, 2000 mg/kg, 72 h, tissue Blood, route oral GAVAGE, dose level High, time 3 day, vehicle .5 % CMC
Express it in G/DL; write the number only.

Study these solved cases before continuing.
- COc1cc2nc(N3CCN(C(=O)c4ccco4)CC3)nc(N)c2cc1OC [PRAZOSIN]: 39.17
- CN(C/C=C/C#CC(C)(C)C)Cc1cccc2ccccc12 [TERBINAFINE]: 37.13
- CN/C(=N/CCSCc1nc[nH]c1C)NC#N [CIMETIDINE]: 38.8

Incoming: Look at this molecule and give its reported MEAN CORPUSCULAR HEMOGLOBIN CONCENTRATION. O=C1Nc2ccc(Cl)cc2C(c2ccccc2Cl)=NC1O (stereo unspecified) [LORAZEPAM]
Outgoing: 39.03

Incoming: Look at this molecule and give its reported MEAN CORPUSCULAR HEMOGLOBIN CONCENTRATION. NC1CCN(c2nc3c(cc2F)c(=O)c(C(=O)O)cn3-c2ccc(F)cc2F)C1 (stereo unspecified) [TOSUFLOXACIN]
Outgoing: 36.65

Incoming: Look at this molecule and give its reported MEAN CORPUSCULAR HEMOGLOBIN CONCENTRATION. CC1(C)S[C@@H]2[C@H](NC(=O)[C@H](N)c3ccccc3)C(=O)N2[C@H]1C(=O)O [AMPICILLIN]
Outgoing: 39.5

* * *

- Organism: Rattus norvegicus
- measurementProtocol: DrugMatrix - Regimen: Daily Repeat
- Assay type: toxicity, organism-based, Sprague-Dawley
- Set-up: regimen Daily Repeat, gender Male, age 6-8 weeks
- cond: in vivo, po, 0 mg/kg, 72 h, tissue Blood, route oral GAVAGE, dose level Control, time 3 day, vehicle 100 % WATER
measurementLabel: LEUKOCYTE COUNT (x10E3/uL)
Express it in x10E3/uL; write the number only.

Study these solved cases before continuing.
• Cn1c(=O)c2[nH]cnc2n(C)c1=O.O = 15.17
• CN(C)CC[C@@H](c1ccc(Cl)cc1)c1ccccn1 = 12.87
• Oc1cccc(O)c1O = 13.7
• Cc1ccc(NC(=O)c2ccc(CN3CCN(C)CC3)cc2)cc1Nc1nccc(-c2cccnc2)n1 = 12
• CC(C)NCC(O)c1ccc(NS(C)(=O)=O)cc1 (stereo not given) = 14.32
• CC(C)(C)CC(C)(C)c1ccc(OCCOCC[N+](C)(C)Cc2ccccc2)cc1.[Cl-] [BENZETHONIUM CHLORIDE] = 13.85

Incoming: Look at this compound and give its reported LEUKOCYTE COUNT. CN(C)CCOC(c1ccccc1)c1ccccc1 [DIPHENHYDRAMINE]
Outgoing: 13.85

Incoming: Look at this compound and give its reported LEUKOCYTE COUNT. CCN(CC)CCNC(=O)c1cc(S(C)(=O)=O)ccc1OC [TIAPRIDE]
Outgoing: 12

Incoming: Look at this compound and give its reported LEUKOCYTE COUNT. O.O.O.O.O.O.[Cl-].[Cl-].[Sr+2] [STRONTIUM CHLORIDE HEXAHYDRATE]
Outgoing: 12

Incoming: Look at this compound and give its reported LEUKOCYTE COUNT. NNc1nncc2ccccc12 [HYDRALAZINE]
Outgoing: 13.85

Origin of measurements: ChEMBL document CHEMBL3885881
